B1: tRNA (parent)
chain: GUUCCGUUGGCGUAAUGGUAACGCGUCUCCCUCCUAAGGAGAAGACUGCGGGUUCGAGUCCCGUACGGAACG

Variants of: B1
Test: yeast fitness relative to wild type (ratio to wild type); higher = fitter; tRNA-Arg(CCU), competitive growth, 37 C, YPD
Fewer inactive variants are shown than the library holds.
What yeast fitness was measured for each of the following?

Items follow; give yeast fitness for each.
1. C5U G10C C27G U28C G39C C46G A65G
2. C4A G17A G18A G25A C55A
3. U3A G17A C22U U35C A65G
4. C29U C33U U35C U54A

["≤ 0.5", "≤ 0.5", "≤ 0.5", "≤ 0.5"]
